- assay-target: hNaV1.7 (Homo sapiens, UniProt Q15858)
- Construct: expressed in transfected cells; host or cells: HEK293
- Sequence (Q15858 whole entry): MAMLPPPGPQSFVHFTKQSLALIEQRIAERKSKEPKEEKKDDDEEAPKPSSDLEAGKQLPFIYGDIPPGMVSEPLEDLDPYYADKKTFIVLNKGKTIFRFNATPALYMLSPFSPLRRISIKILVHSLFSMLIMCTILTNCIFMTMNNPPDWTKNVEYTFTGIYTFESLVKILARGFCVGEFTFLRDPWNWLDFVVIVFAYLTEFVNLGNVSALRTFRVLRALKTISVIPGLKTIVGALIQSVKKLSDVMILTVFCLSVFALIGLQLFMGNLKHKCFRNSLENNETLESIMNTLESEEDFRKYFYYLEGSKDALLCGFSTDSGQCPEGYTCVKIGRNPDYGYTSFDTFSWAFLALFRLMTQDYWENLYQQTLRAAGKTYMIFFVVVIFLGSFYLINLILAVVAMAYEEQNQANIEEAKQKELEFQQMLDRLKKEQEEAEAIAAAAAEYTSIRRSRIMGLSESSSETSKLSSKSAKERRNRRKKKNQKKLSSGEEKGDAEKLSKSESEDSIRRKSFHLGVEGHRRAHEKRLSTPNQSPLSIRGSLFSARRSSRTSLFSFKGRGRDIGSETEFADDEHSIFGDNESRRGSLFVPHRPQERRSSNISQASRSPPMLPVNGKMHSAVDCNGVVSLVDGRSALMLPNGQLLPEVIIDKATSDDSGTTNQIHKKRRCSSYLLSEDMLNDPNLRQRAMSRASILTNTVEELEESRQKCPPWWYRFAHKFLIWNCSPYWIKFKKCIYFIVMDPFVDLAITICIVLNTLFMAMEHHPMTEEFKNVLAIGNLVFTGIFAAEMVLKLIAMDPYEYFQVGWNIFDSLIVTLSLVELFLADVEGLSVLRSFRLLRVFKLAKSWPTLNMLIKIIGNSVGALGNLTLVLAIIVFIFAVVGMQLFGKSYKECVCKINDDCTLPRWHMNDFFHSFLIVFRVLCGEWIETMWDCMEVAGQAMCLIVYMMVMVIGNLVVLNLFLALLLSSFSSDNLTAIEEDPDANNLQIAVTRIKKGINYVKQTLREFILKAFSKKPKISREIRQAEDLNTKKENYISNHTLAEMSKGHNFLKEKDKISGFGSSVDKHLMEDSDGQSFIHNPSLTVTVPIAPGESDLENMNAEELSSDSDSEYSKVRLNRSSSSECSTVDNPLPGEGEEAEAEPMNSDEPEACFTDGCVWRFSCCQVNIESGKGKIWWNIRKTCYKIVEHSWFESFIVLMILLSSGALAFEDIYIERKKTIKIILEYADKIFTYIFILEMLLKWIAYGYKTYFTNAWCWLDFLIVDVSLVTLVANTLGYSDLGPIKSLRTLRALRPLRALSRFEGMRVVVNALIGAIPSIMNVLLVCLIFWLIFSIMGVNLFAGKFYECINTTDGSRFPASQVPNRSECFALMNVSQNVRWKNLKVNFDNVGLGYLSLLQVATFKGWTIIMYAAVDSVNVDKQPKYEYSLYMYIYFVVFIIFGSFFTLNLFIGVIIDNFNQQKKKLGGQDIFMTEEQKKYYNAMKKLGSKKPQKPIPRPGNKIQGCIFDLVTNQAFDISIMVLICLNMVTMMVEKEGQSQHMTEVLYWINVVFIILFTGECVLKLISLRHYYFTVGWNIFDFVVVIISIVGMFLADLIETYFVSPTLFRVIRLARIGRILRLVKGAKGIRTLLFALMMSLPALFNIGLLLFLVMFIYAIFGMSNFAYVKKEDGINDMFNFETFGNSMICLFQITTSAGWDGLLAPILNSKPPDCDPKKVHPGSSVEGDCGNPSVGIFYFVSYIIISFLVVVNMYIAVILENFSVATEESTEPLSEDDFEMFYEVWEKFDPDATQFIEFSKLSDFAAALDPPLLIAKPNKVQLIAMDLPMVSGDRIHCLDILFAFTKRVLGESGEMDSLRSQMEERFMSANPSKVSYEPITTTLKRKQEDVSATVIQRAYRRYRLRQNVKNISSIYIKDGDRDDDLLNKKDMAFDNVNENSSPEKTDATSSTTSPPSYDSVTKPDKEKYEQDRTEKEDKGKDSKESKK
- measurement-description: QPatch NaV1.7 assay (whole-cell patch clamp, QPatch16x)
- Type: cell-based
- conditions: holding voltage −90 mV (most channels closed), HEK293-hNaV1.7 cells, read-out: QP Nav1.7 −90 mV pIC50 (converted)
Counter-ions that a name gives are not always drawn.
measurement-kind: IC50 (µM)

[1] CCN1[C@H](c2cc(-c3ccc(C(F)(F)F)cc3)ccn2)CC[C@]12CCCNC2=O [Example 233, hydrochloride]
[2] CN1CC[C@@]2(CC[C@@H](c3cc(-c4ccc(C(F)(F)F)cc4)ccn3)N2)C1=O [Example 53, hydrochloride]
[3] CN1CC[C@@]2(CC[C@H](c3cc(-c4cc(OC(F)(F)F)ccc4F)ccn3)N2)C1=O [Example 176, hydrochloride]
[4] CCOc1ccc(F)c(-c2cc(OC)nc([C@@H]3CC[C@@]4(CCN(C)C4=O)N3)c2)c1 [Example 249, hydrochloride]
**Q:** From the records above, write out the order of decreasing IC50. Write out the labels following the order that was asked for.
**A:** 3, 2, 1, 4
(3: 200 µM, 2: 100 µM, 1: 31.6 µM, 4: 15.8 µM)

[P] CN1CC[C@@]2(CC[C@H](c3cc(-c4ccc(F)cc4)ccn3)N2)C1=O [Example 66, hydrochloride]
[Q] CCCOc1ccc(F)c(-c2cc(C)nc([C@@H]3CC[C@]4(CCN(C)C4=O)N3)c2)c1 [Example 201, hydrochloride]
**Q:** Identify the item whose IC50 is the smaller number: P or Q Give the label under which the chosen entry appears.
**A:** Q
(Q: 5.01 µM, P: 126 µM)

[I] O=C1NCC[C@@]12CC[C@H](c1cc(-c3ccc(C(F)(F)F)cc3)ccn1)N2 [Example 37, hydrochloride]
[II] CN1CC[C@@]2(CC[C@H](c3cc(-c4ccc(C(F)(F)F)cc4)ccn3)N2C)C1=O [Example 225, hydrochloride]
[III] Cc1cc(-c2cccc(OC(F)(F)F)c2)cc([C@H]2CC[C@@]3(CCN(C)C3=O)N2)n1 [Example 127, hydrochloride]
[IV] CN1CC[C@@]2(CC[C@H](c3cc(-c4ccc(C(F)(F)F)cc4)c(F)cn3)N2)C1=O [Example 58, hydrochloride]
**Q:** Please list the entries, largest IC50 first. Write out the labels following the order that was asked for.
**A:** II, IV, I, III

---

- assay-target: hNaV1.7 (Homo sapiens, UniProt Q15858)
- Construct: expressed in transfected cells; host or cells: HEK293
- measurement-description: QPatch NaV1.7 assay (whole-cell patch clamp, QPatch16x)
- Assay type: cell-based
- conditions: holding voltage −90 mV (most channels closed), HEK293-hNaV1.7 cells, read-out: QP Nav1.7 −90 mV pIC50 (converted)
Where a name gives a salt, the structure may show the parent alone.
measurement-kind: IC50 (µM)

Example entries and their recorded answers appear below.
[[record]]
compound = "Cc1cc(-c2ccc(OC(C)C)cc2)cc([C@H]2CC[C@@]3(CCN(C)C3=O)N2)n1 [Example 85, hydrochloride]"
assay_value = 10

[[record]]
compound = "Cc1cc(-c2ccc(C(F)(F)F)cc2)cc([C@@H]2CC[C@@]3(CCNC3=O)N2C)n1 [Example 226, hydrochloride]"
assay_value = 1580

[[record]]
compound = "CC(C)Oc1ccc(-c2ccnc([C@H]3CC[C@@]4(CCN(C)C4=O)N3)c2)cc1 [Example 162, hydrochloride]"
assay_value = 15.8

[[record]]
compound = "COCc1ccc(F)c(-c2ccnc([C@H]3CC[C@@]4(CCN(C)C4=O)N3)c2)c1 [Example 188, hydrochloride]"
assay_value = 501

[[record]]
compound = "CCOc1ccc(F)c(-c2ccnc([C@@H]3CC[C@]4(CCN(C)C4=O)N3)c2C)c1 [Example 213, hydrochloride]"
assay_value = 63.1


[P] CCOc1ccc(F)c(-c2cc([C@H]3CC[C@@]4(CCN(C)C4=O)N3)ncc2CC)c1 [Example 241, hydrochloride]
[Q] Cc1cc(-c2ccc(C(F)(F)F)cc2)cc([C@@H]2CC[C@@]3(CCCNC3=O)N2)n1 [Example 101, hydrochloride]
**Q:** Which item exceeds the other in IC50, P or Q ? Give the label under which the chosen entry appears.
**A:** P

---

- assay-target: hNaV1.7 (Homo sapiens)
- Construct: expressed in transfected cells; host or cells: HEK293
- measurement-description: QPatch NaV1.7 assay (whole-cell patch clamp, QPatch16x)
- Assay type: cell-based
- conditions: holding voltage V1/2 SSI (half of channels inactivated), HEK293-hNaV1.7 cells, read-out: QP Nav1.7 SSI vhalf pIC50 (converted)
Structures can show the parent of a compound that is named as a salt.
measurement-kind: IC50 (µM)

Example entries and their recorded answers appear below.
[[record]]
compound = "Cc1cc(-c2ccc(F)cc2)cc([C@H]2CC[C@@]3(CCN(C)C3=O)N2)n1 [Example 57, hydrochloride]"
units = "µM"
assay_value = 3.98

[[record]]
compound = "CN1CC[C@]2(CC[C@@H](c3cc(-c4ccc(C(F)(F)F)cc4)c(F)cn3)N2)C1=O [Example 60, hydrochloride]"
units = "µM"
assay_value = 3.98

[[record]]
compound = "CCOc1ccc(F)c(-c2cc([C@H]3CC[C@@]4(CCN(C)C4=O)N3)ncc2CC)c1 [Example 241, hydrochloride]"
units = "µM"
assay_value = 15.8

[[record]]
compound = "CCc1cccc(-c2cc(C)nc([C@H]3CC[C@@]4(CCN(C)C4=O)N3)c2)c1 [Example 205, hydrochloride]"
units = "µM"
assay_value = 6.31

[[record]]
compound = "CN1CC[C@]2(CC[C@@H](c3cc(-c4ccc(C(F)(F)F)cc4)c(OC(C)(C)C)cn3)N2)C1=O [Example 64, hydrochloride]"
units = "µM"
assay_value = 3.16

[[record]]
compound = "CCOc1cc(-c2ccnc([C@H]3CC[C@@]4(CCN(C)C4=O)N3)c2)c(F)cc1C [Example 151, hydrochloride]"
units = "µM"
assay_value = 15.8

[[record]]
compound = "Cc1cc(-c2ccc(C(F)(F)F)cc2)cc([C@@H]2CC[C@@]3(CCN(C)C3=O)N2)n1 [Example 29, hydrochloride]"
units = "µM"
assay_value = 20

[[record]]
compound = "CN1CC[C@@]2(CC[C@H](c3cc(-c4cn(C)c5ccccc45)ccn3)N2)C1=O [Example 157, hydrochloride]"
units = "µM"
assay_value = 25.1


[I] Cc1cc(-c2cc(C(F)(F)F)ccc2C(N)=O)cc([C@@H]2CC[C@]3(CCN(C)C3=O)N2)n1 [Example 27, hydrochloride]
[II] CCc1ccc(F)c(-c2cc(C)nc([C@H]3CC[C@@]4(CCN(C)C4=O)N3)c2)c1 [Example 204, hydrochloride]
**Q:** Which item exceeds the other in IC50, I or II ? Give the label under which the chosen entry appears.
**A:** I

[I] CCOc1ccc(F)c(-c2cc([C@H]3CC[C@]4(CCN(C)C4=O)N3)ncc2C)c1 [Example 140, hydrochloride]
[II] CCOc1ccc(F)c(-c2cc(C(C)C)nc([C@H]3CC[C@]4(CCN(C)C4=O)N3)c2)c1 [Example 234, hydrochloride]
[III] CN1CCC[C@]2(CC[C@H](c3cc(-c4ccc(C(F)(F)F)cc4)ccn3)N2)C1=O [Example 70, hydrochloride]
**Q:** Please order the records by their reported IC50, lowest number first. Write out the labels following the order that was asked for.
**A:** II, III, I
(II: 0.0501 µM, III: 1 µM, I: 31.6 µM)

[1] CCOc1ccc(-c2cc(C)nc([C@H]3CC[C@@]4(CCN(C)C4=O)N3)c2)cc1 [Example 89, hydrochloride]
[2] CC(C)c1ccc(F)c(-c2ccnc([C@H]3CC[C@@]4(CCN(C)C4=O)N3)c2)c1 [Example 159, hydrochloride]
**Q:** Which item exceeds the other in IC50, 1 or 2 ? Give the label under which the chosen entry appears.
**A:** 2
(2: 7.94 µM, 1: 3.16 µM)

[I] CCOc1ccc(F)c(-c2ccnc([C@H]3CC[C@]4(CCN(C)C4=O)N3)c2C)c1 [Example 212, hydrochloride]
[II] O=C1NCC[C@@]12CC[C@H](c1cc(-c3cccc(OC(F)(F)F)c3)ccn1)N2 [Example 118, hydrochloride]
[III] Cc1cnc([C@H]2CC[C@]3(CCN(C)C3=O)N2)cc1-c1ccc(C(F)(F)F)cc1 [Example 42, hydrochloride]
**Q:** Please list the entries, largest IC50 first. Write out the labels following the order that was asked for.
**A:** II, I, III

[A] CN1CC[C@@]2(CC[C@H](c3cc(-c4ccc(F)cc4F)ccn3)N2)C1=O [Example 9, hydrochloride]
[B] Cc1cc(-c2ccc(C(F)(F)F)cc2)cc([C@H]2CC[C@]3(CCN(C)C3=O)N2)n1 [Example 31, hydrochloride]
**Q:** Which item exceeds the other in IC50, A or B ? Give the label under which the chosen entry appears.
**A:** A
